Tested on: HCT-116 colon
Test: NCI tumour cell line growth inhibition, 48 h
attribute measured: TGI

[[record]]
compound = "CCOC(=N)CC(=O)Nc1cccc(Cl)c1"
value_measured = "> 100 µM"

[[record]]
compound = "CC1(C)OCC([C@H]2CC23SCCCS3)O1 (stereo partly drawn)"
value_measured = "> 100 µM"

[[record]]
compound = "O=C(CN1CCOCC1)c1ccc2c(c1)oc(=O)n2CCN1CCCC1"
value_measured = "> 100 µM"

[[record]]
compound = "CC(C)(C)OC(=O)c1ccc(NCC2=CC(=O)C=CC2=O)cc1"
value_measured = "26.2 µM"

[[record]]
compound = "Cc1ccc(-c2cc(=O)c3cc(C)c(C)c(C(=O)O)c3o2)cc1N"
value_measured = "> 100 µM"

[[record]]
compound = "CCN(CC)CCN(Cc1ccc(F)cc1)c1ccc(CO)c(Cl)c1"
value_measured = "> 50.1 µM"

[[record]]
compound = "COc1cc(S(=O)(=O)Nc2ccc(-c3csc(N4C(=O)C(Cl)C4c4ccccc4)n3)cc2)ccc1Cl (stereo not drawn)"
value_measured = "> 100 µM"

[[record]]
compound = "CC(=O)C1=C(C)N(C)C2(O)C=CC(=O)C3=C(O)c4ccccc4C(=O)C312 (stereo not drawn)"
value_measured = "7.09 µM"

[[record]]
compound = "CCCCC(=O)N/N=C/c1c(O)ccc2ccccc12"
value_measured = "> 29.6 µM"

[[record]]
compound = "C/C(=N\\NC(=S)N1CCCCCCCCCCCC1)c1ccccn1"
value_measured = "1.66 µM"

[[record]]
compound = "C=CC(Br)(CBr)CCC(Br)C(C)(C)Cl (stereo not drawn)"
value_measured = "3.4 µM"

[[record]]
compound = "O=S1(=O)CCCS(=O)(=O)C(c2ccccc2)=C1c1ccccc1"
value_measured = "> 100 µM"

[[record]]
compound = "N#Cc1c(N)nc(N)nc1N[C@H](c1nc2c(F)ccc(Cl)c2c(=O)n1-c1cccnc1)C1CC1"
value_measured = "27.3 µM"

[[record]]
compound = "CC(C)(CCCCC(C)(C)C1NC(=O)N1)C1NC(=O)N1"
value_measured = "> 10 µM"

[[record]]
compound = "COC(=O)[C@]1(c2cc3ccccc3[nH]2)CC2CN(CC(=O)N(C)OC)C1CC2(OC)OC (stereo partly drawn)"
value_measured = "70.7 µM"

[[record]]
compound = "COc1ccc(N=Nc2c(C)c(C#N)c(=S)n(C3OC(CO)C(O)C(O)C3O)c2C)cc1 (stereo not drawn)"
value_measured = "> 100 µM"

[[record]]
compound = "O=S1(=O)CS(=O)(=O)OCCO1"
value_measured = "85.3 µM"

[[record]]
compound = "COC(=O)[C@@H](Cc1ccccc1)N1O[C@]12CCCC[C@@H]2NC(=O)OC(C)(C)C (stereo partly drawn)"
value_measured = "> 100 µM"

[[record]]
compound = "O=S(=O)(c1ccccc1)n1cc(C[P+](c2ccccc2)(c2ccccc2)c2ccccc2)c2ccccc21"
value_measured = "15.2 µM"

[[record]]
compound = "CCOc1ccc(N=NS(=O)(=O)O)cc1"
value_measured = "> 100 µM"

[[record]]
compound = "CCC(=O)Nc1ccccc1C#C/C=C\\C#Cc1ccccc1C(F)(F)F"
value_measured = "25.8 µM"

[[record]]
compound = "O=C1NC(N2CCCCC2)=N/C1=C\\c1ccccc1O"
value_measured = "> 100 µM"

[[record]]
compound = "C#CC1(O)c2ccccc2C(=O)c2ccccc21"
value_measured = "> 100 µM"


* * *

Test system: BT-549 breast
Test: NCI tumour cell line growth inhibition, 48 h; in the data active means GI50 below about 0.43 µM; inactive means the rest
Possible outcomes: Y (active), N (inactive)

[[record]]
molecule = "CN1CCN(c2nc(NCCCNc3ccnc4cc(Cl)ccc34)c3ccccc3n2)CC1"
discrete_label = "N"

[[record]]
molecule = "Cc1ccc(C(SCC(N)C(=O)O)(c2ccccc2)c2ccccc2)cc1 (stereo not given)"
discrete_label = "Y"

[[record]]
molecule = "Nc1nc(N)c2c(n1)NC(c1ccccc1)C1CCc3ccccc3C1=N2 (stereo not given)"
discrete_label = "N"

[[record]]
molecule = "COc1ccc2c(Cl)cc(NC(=O)Nc3c(C)cccc3C)nc2c1"
discrete_label = "N"

[[record]]
molecule = "COc1cc(-c2n/c(=C\\c3c(O)[nH]c4cc(Cl)ccc34)cc3c2=Nc2ccccc2-3)cc(OC)c1OC"
discrete_label = "N"


* * *

Each entry below lists one item and its recorded TGI value.
Tested on: U251 CNS
Assay: NCI tumour cell line growth inhibition, 48 h
Where a SMILES comes first, the peptide text is derived from it.
attribute measured: TGI

[[record]]
compound = "C[C@]1(Cn2ccnn2)C(C(=O)O)N2C(=O)CC2S1(=O)=O (stereo partly drawn)"
value_measured = "> 100 µM"

[[record]]
compound = "COc1ccc2c(Cl)cc(NC(=O)Nc3c(C)cccc3C)nc2c1"
value_measured = "39.2 µM"

[[record]]
compound = "Cc1[nH]c(-c2nc3ccccc3[nH]2)c(C)c1C(=O)NC(C)C1CCCCC1 (stereo not drawn)"
value_measured = "25.1 µM"

[[record]]
compound = "CCCCCCCCCCCCOc1ccc(/C=C/C2=[N+](CCCl)CCO2)cc1"
value_measured = "58.4 µM"

[[record]]
compound = "O=c1c2cc(Cl)ccc2[nH]c2cc(O)cc(O)c12"
value_measured = "> 10 µM"

[[record]]
compound = "CC(C)(CCCCC(C)(C)C1NC(=O)N1)C1NC(=O)N1"
value_measured = "> 10 µM"

[[record]]
compound = "O=C(N/N=C/c1ccccc1O)c1ccccc1Nc1ccccc1C(=O)N/N=C/c1ccccc1O"
value_measured = "> 100 µM"

[[record]]
compound = "COc1ccc(/C=C/C(=O)CC(=O)/C=C/c2ccc(OC)cc2)cc1"
value_measured = "> 100 µM"

[[record]]
compound = "Nc1c(-c2ccccc2[N+](=O)[O-])nc2ccccn12"
value_measured = "> 100 µM"

[[record]]
compound = "C/C(=N\\NC(=S)N1CCCCCCCCCCCC1)c1ccccn1"
value_measured = "0.28 µM"

[[record]]
compound = "O=[n+]1c2ccccc2n([O-])c2cc(Cl)ccc21"
value_measured = "12 µM"

[[record]]
compound = "CN[C@@H](C)[C@H](N)c1ccccc1"
value_measured = "> 100 µM"

[[record]]
compound = "[O-][N+]1=NC(c2ccccc2)=C1c1ccccc1"
value_measured = "> 50 µM"

[[record]]
compound = "NC(=O)/C=c1/c2ccccc2n2nc3ccccc3c12"
value_measured = "29.3 µM"

[[record]]
compound = "CN(C)CC(C(=O)Cc1ccccc1)c1ccccc1 (stereo not drawn)"
value_measured = "5.02 µM"

[[record]]
compound = "Cc1ccc(C2=C(c3ccccc3)C(c3ccccc3)Oc3ccc(C)cc32)cc1 (stereo not drawn)"
value_measured = "28.5 µM"

[[record]]
compound = "O=[N+]([O-])c1ccccc1C=NC12CC3CC(CC(C3)C1)C2"
value_measured = "> 100 µM"

[[record]]
compound = "O=C(CC1(O)C(=O)Nc2ccccc21)c1ccc(O)cc1 (stereo not drawn)"
value_measured = "> 100 µM"

[[record]]
compound = "COc1cccc2c1C(=O)c1c(O)c3c(c(O)c1C2=O)C[C@@](O)(C(=O)CO)CC3OC1CC(O)C(O)C(C)O1 (stereo partly drawn)"
value_measured = "13.9 µM"

[[record]]
compound = "Oc1ccc(CCNCc2cc3c(cc2Br)OCO3)cc1"
value_measured = "> 100 µM"

[[record]]
compound = "CCCCCCOc1ccc(C(=O)N(C)O)cc1"
value_measured = "> 100 µM"

[[record]]
compound = "C#CC1(O)c2ccccc2C(=O)c2ccccc21"
value_measured = "> 100 µM"

[[record]]
compound = "Cc1nn2c(C(=O)N/N=C/c3ccc([N+](=O)[O-])cc3)c(C)nc2s1"
value_measured = "53.5 µM"

[[record]]
compound = "Cc1cc2nc3cc(C)c(N)cc3[n+](-c3ccccc3)c2cc1N"
value_measured = "> 100 µM"

[[record]]
compound = "COc1ccc2c(c1)CCCN2S(=O)(=O)c1ccccc1[N+](=O)[O-]"
value_measured = "> 92 µM"

[[record]]
compound = "CCCCC(=O)N/N=C/c1c(O)ccc2ccccc12"
value_measured = "> 100 µM"

[[record]]
compound = "Fc1cccc(Cl)c1C1SCc2nc3cc4ccccc4cc3n21 (stereo not drawn)"
value_measured = "> 100 µM"

[[record]]
compound = "CC1(C)C2CC3C4CC5(Nc6ccccc6C5N41)[C@]3(C)CC2=O (stereo partly drawn)"
value_measured = "> 50 µM"

[[record]]
compound = "CCOC(=O)C1=C(C)N(NC(N)=O)C(C)(O)C12CCOC2=O (stereo not drawn)"
value_measured = "> 100 µM"

[[record]]
compound = "CCN(CC)CCCNc1nc(=O)[nH]c(C)c1C(=O)Nc1ccc2c(c1)c1ccccc1n2CC"
value_measured = "> 100 µM"

[[record]]
compound = "O=S1(=O)CS(=O)(=O)OCCO1"
value_measured = "96.3 µM"

[[record]]
compound = "COc1cc(Nc2nnc3n2S(=O)(=O)c2cc(C)c(Cl)cc2S3)cc(OC)c1"
value_measured = "29.2 µM"

[[record]]
compound = "O=C(CN1CCOCC1)c1ccc2c(c1)oc(=O)n2CCN1CCCC1"
value_measured = "> 100 µM"

[[record]]
compound = "CCCCN[C@H]1C2C3CC4C5CC(C42)C1(C)C53 (stereo partly drawn)"
value_measured = "> 100 µM"

[[record]]
compound = "CCCCNC(=O)c1cc(NCc2cc(O)ccc2O)ccc1O"
value_measured = "59.1 µM"

[[record]]
compound = "Cc1cc(=O)[nH]c(NNC(C#N)c2c(O)ccc3ccccc23)n1 (stereo not drawn)"
value_measured = "43.3 µM"

[[record]]
compound = "O=S(=O)([O-])[O-].[Cl-].[NH2-].[NH2-].[NH2-].[NH2-].[Ru+3].c1ccncc1"
value_measured = "> 100 µM"

[[record]]
compound = "O=c1c2cc(I)ccc2nc(SCc2n[nH]c(=S)o2)n1Cc1ccccc1"
value_measured = "31.4 µM"

[[record]]
compound = "Cc1cnc2c(c1)C(=O)C1=C(OC(C)(C)CC1O)C2=O (stereo not drawn)"
value_measured = "29.3 µM"

[[record]]
compound = "C=C(CC(=O)O)C(=O)O (tested in a mixture with another compound)"
value_measured = "> 50 µg/mL"

[[record]]
compound = "CSc1nc(NC2OC(COC(C)=O)C(OC(C)=O)C(OC(C)=O)C2OC(C)=O)c(-c2csc(N)n2)c(=O)n1C (stereo not drawn)"
value_measured = "> 100 µM"

[[record]]
compound = "CCOC(=O)c1oc2ccc([N+](=O)[O-])c3c2c1CCC3"
value_measured = "59.2 µM"

[[record]]
compound = "CC(C)CC(NC(=O)C(Cc1ccccc1)NC(=O)C(Cc1c[nH]c2ccccc12)NC(=O)CNC(=O)C(N)Cc1ccc(O)cc1)C(=O)O (stereo not drawn) (H-YGWFL-OH; configuration not given here)"
value_measured = "> 100 µM"


Cited source for all entries: PubChem BioAssay (NCI)
